tested on: cAMP phosphodiesterase (Bos taurus); experiment: Ratio of Ki/Km for inhibition of bovine heart cAMP-phosphodiesterase
measurement-label: Ratio
Give bare numbers.

Which Ratio is reported with cAMP phosphodiesterase (Bos taurus) for this entry: CCN(CC)c1nc(NCC(O)c2cccc(O)c2)c2cc(OC)c(OC)cc2n1.Cl (centres undefined) ?
0.73

Which Ratio is reported with cAMP phosphodiesterase (Bos taurus) for this entry: CCN(CC)c1nc(NCC(O)c2cccc(O)c2)nc2cc(OC)c(OC)cc12 (centres undefined) ?
1.15

Which Ratio is reported with cAMP phosphodiesterase (Bos taurus) for this entry: CCN(CC)c1nc(NCC(O)c2ccccc2)c2cc(OC)c(OC)cc2n1 (centres undefined) ?
0.64

Which Ratio is reported with cAMP phosphodiesterase (Bos taurus) for this entry: CCN(CC)c1nc(NCC(O)c2ccccc2)nc2cc(OC)c(OC)cc12 (centres undefined) ?
1.88

Which Ratio is reported with cAMP phosphodiesterase (Bos taurus) for this entry: CCN(CC)c1nc(NCC(O)c2cc(O)cc(O)c2)nc2cc(OC)c(OC)cc12.Cl (centres undefined) ?
0.43

Which Ratio is reported with cAMP phosphodiesterase (Bos taurus) for this entry: CCN(CC)c1nc(NCCc2ccccc2)c2cc(OC)c(OC)cc2n1 ?
0.107

Which Ratio is reported with cAMP phosphodiesterase (Bos taurus) for this entry: CCN(CC)c1nc(NCC(O)c2ccc(O)c(CO)c2)nc2cc(OC)c(OC)cc12.Cl (centres undefined) ?
0.69

Which Ratio is reported with cAMP phosphodiesterase (Bos taurus) for this entry: CCN(CC)c1nc(NCC(O)c2ccc(O)c(CO)c2)c2cc(OC)c(OC)cc2n1.Cl (centres undefined) ?
0.81

Next:
Which Ratio is reported with cAMP phosphodiesterase (Bos taurus) for this entry: CCN(CC)c1nc(NCCc2ccccc2)nc2cc(OC)c(OC)cc12 ?
0.054
